- Tested on: HOP-62 NSCLC
- ASSAY_INFO: NCI tumour cell line growth inhibition, 48 h
Where a SMILES comes first, the peptide text is derived from it. The star is where a group is joined. Bn = c1ccc(C*)cc1
PROPERTY_NAME: TGI

COMPOUND | OBSERVED_MEASUREMENT
CO/N=C(/C)c1cccc(Nc2cc(-c3ccccc3)nc3ccc(OC)cc23)c1 | 6.17 µM
CN(C)P(=O)(Oc1occc1C(O)Cc1ccccc1)N(C)C (stereo not drawn) | > 100 µM
COC(C(=O)[C@@H](O)[C@@H](C)O)[C@@H]1Cc2cc3cc(O[C@H]4C[C@@H](O[C@H]5C[C@@H](O)[C@H](O)C(C)O5)[C@H](O)C(C)O4)c(C)c(O)c3c(O)c2C(=O)[C@H]1O[C@H]1C[C@@H](O[C@H]2C[C@@H](O[C@H]3C[C@@H](O)[C@H](OC)C(C)O3)[C@@H](O)C(C)O2)[C@H](O)C(C)O1 (stereo partly drawn) | 0.717 µM
C=C1CC[C@@H](C(C)C)C[C@@H]2[C@H]([C@H](O)C[C@]2(C)O)[C@@]2(C)CC[C@@H]1O2 | 31.6 µM
CC1C(c2ccc3c(c2)OCO3)c2cc3c(cc2OC1N1CCOCC1)OCO3 (stereo not drawn) | 78.6 µM
COC(=O)c1cc(/C=C/c2ccc(S(N)(=O)=O)cc2)ccc1O | > 100 µM
Cc1ccc(-c2c(C#N)c(-c3ccc([N+](=O)[O-])cc3)c(C#N)c(=O)n2NS(=O)(=O)c2ccccc2)cc1 | > 100 µM
CCOC(=O)C1CN(C2CC2)CCC1=O (stereo not drawn) | > 100 µM
CC/C(Cl)=N\OC(=O)Nc1ccc(F)c([N+](=O)[O-])c1 | 35 µM
COC(=O)[C@H](Cc1ccccc1)NC(=O)c1ccc(CNC(=O)/C=C/c2cccc(Oc3ccccc3)c2)cc1 | > 100 µM
CC1=C(c2cc(C(=O)Nc3ccc(Cl)cc3)nc(=S)[nH]2)Sc2ccccc2N1 | > 100 µM
OC1(c2ccc(Cl)cc2)c2ccc(CN3CCCC3)cc2C2=NCCN21 (stereo not drawn) | 29.2 µM
Cc1cc2c(nn1)-c1ccccc1C2=O | > 10 µM
N.N.NCCCCCCCCCN.O=C([O-])CC(=O)[O-].O=C([O-])CC(=O)[O-].[Pt+4].[Pt+4] | > 100 µM
O=C(NO)c1ccc(CN(c2cnccn2)c2cnccn2)cc1 | 34.8 µM
S=C1CC(c2ccccc2)Sc2ccc(Cl)cc2N1 (stereo not drawn) | > 100 µM
O=C(c1ccccc1)N1C(=S)N=C(Nc2ccccc2)C1=Nc1ccccc1 | > 100 µM
NS(=O)(=O)c1ccc(NC(NC(=O)C(C(F)(F)F)C(F)(F)F)(C(F)(F)F)C(F)(F)F)cc1 | > 100 µM
O=C1CSC(c2ccc(-c3nc4ccccc4s3)cc2)=N1 | > 100 µM
O=C(OCc1ccc2c(Cl)cc(Cl)c(O)c2n1)N1CCN(C(=O)c2cc3cc(F)ccc3[nH]2)CC1 | > 100 µM
O=C(OCc1ccccc1)C(Cc1ccccc1)N(Cc1ccccc1)Cc1ccccc1 (stereo not drawn) | > 100 µM
O=C(NCc1ccc(S(=O)(=O)c2cc(F)cc(F)c2)cc1)c1ccc2nccn2c1 | 74 µM
COc1ccc(-c2csc(NC(=O)CSc3nc(C)c(-c4ccccc4)n3Nc3ccccc3)n2)cc1 | > 100 µM
CCCCCCCCCCN1CCC(N2CCCCC2)CC1 | 7.64 µM
Cc1cc(C)n(-c2nnc3n2N=C(c2ccc(-c4ccccc4)cc2)CS3)n1 | > 100 µM
COc1ccc(/C=C(/c2ccccc2)[N+](=O)[O-])cc1 | 3.79 µM
C=C(C)[C@@]1(O[Si](C)(C)C)CCCC[C@@H]1CC(Sc1ccccc1)Sc1ccccc1 | 27.5 µM
c1csc(-c2c3ccc(=[N+]4CCCCC4)cc-3oc3cc(N4CCCCC4)ccc23)c1 | 0.199 µM
C[C@H]1CCC/C=C/[C@@H]2C[C@H](O)C[C@H]2[C@H](O)[C@@H](SCC(O)CO)CC(=O)O1 (stereo partly drawn) | > 100 µM
N#CCCN(CCC#N)c1ccc(/C=C2\SC(=S)NC2=O)cc1Br | 40.4 µM
CN1COCc2cc3cc4c(cc3nc21)OCCO4 | > 100 µM
COC(=O)C(CC(C)C)NC(=O)C(N)Cc1ccc(OCc2ccccc2)cc1 (stereo not drawn) (H-Tyr(Bn)-Leu-OMe; configuration not given here) | > 10 µM
COc1cc(C(=O)N2CCc3c([nH]c4c([N+](=O)[O-])c(OC)ccc34)C2C)cc(OC)c1OC (stereo not drawn) | > 100 µM
O=c1oc2ccc(Br)cc2c(=O)n1-c1ccc(F)cc1F | 8.3 µM
O=C(c1ccco1)C1CC(c2c(O)ccc3ccccc23)=NN1 (stereo not drawn) | 27.3 µM
Cc1cn2c(C)csc2c1P(=O)(OC(C)C)OC(C)C | > 100 µM
CC(C)(C)C(=O)C(Cc1ccccc1)C(=O)C(C)(C)C | > 100 µM
c1ccc(-c2cnc(-c3ccc(-c4ncc(-c5ccccc5)o4)cc3)o2)cc1 | > 100 µM
